tested on: A549 human lung adenocarcinoma cell line; experiment: MTT cytotoxicity assay, A549; assay type: cell-based; details: A549 cells, 72 h treatment, absorbance 562 nm (reference 630 nm), read-out: IC50 Values, cytotoxicity against A549
pIC50: −log10 of the molar value. Square brackets hold non-standard residues; d marks the D form. Peptide text beside a SMILES is read from it.
OBSERVED PROPERTY: pIC50

MOLECULE	TARGET	pIC50
CC(C)C[C@@H]1NC(=O)[C@H](CC(C)C)NC(=O)[C@H](C(C)C)NC(=O)[C@H](CC(C)C)NC(=O)[C@@H](CC(C)C)NC1=O [Compound 5, cyclo-(L-Leu-L-Leu-D-Leu-L-Leu-L-Val)] (cyclo(LL[dL]LV))	A549 human lung adenocarcinoma cell line	> 4.30

# evaluate next
Request: Request body: readout pIC50, system A549 human lung adenocarcinoma cell line, query CC[C@H](C)[C@@H]1NC(=O)[C@H](CC(C)C)NC(=O)[C@H](CC(C)C)NC(=O)[C@H](CC(C)C)NC(=O)[C@H](CC(C)C)NC1=O [Compound 6, cyclo-(L-Ile-L-Leu-L-Leu-L-Leu-L-Leu)] (cyclo(ILLLL)) . Return the value.
Response: > 4.30

----------
test system: NCI-H1944 human lung adenocarcinoma cell line; assay: MTT cytotoxicity assay, NCI-H1944; assay type: cell-based; conditions: NCI-H1944 cells, 72 h treatment, absorbance 562 nm (reference 630 nm), read-out: IC50 Values, cytotoxicity against NCI-H1944
pIC50: −log10 of the molar value. Square brackets hold non-standard residues; d marks the D form. Peptide text beside a SMILES is read from it.
Each entry below carries its reported pIC50.

MOLECULE	pIC50
CC(C)C[C@@H]1NC(=O)[C@H](CC(C)C)NC(=O)[C@H](C(C)C)NC(=O)[C@H](CC(C)C)NC(=O)[C@@H](CC(C)C)NC1=O [Compound 5, cyclo-(L-Leu-L-Leu-D-Leu-L-Leu-L-Val)] (cyclo(LL[dL]LV))	> 4.30

Now consider the entry below.
Request: Please state recorded pIC50 (tested on NCI-H1944 human lung adenocarcinoma cell line) of CC[C@H](C)[C@@H]1NC(=O)[C@H](CC(C)C)NC(=O)[C@H](CC(C)C)NC(=O)[C@H](CC(C)C)NC(=O)[C@H](CC(C)C)NC1=O [Compound 6, cyclo-(L-Ile-L-Leu-L-Leu-L-Leu-L-Leu)] (cyclo(ILLLL))
Response: > 4.30

----------
test system: A549 human lung adenocarcinoma cell line; assay: MTT cytotoxicity assay, A549; type: cell-based; settings: Homo sapiens, A549 cells, 72 h treatment, absorbance 562 nm (reference 630 nm), read-out: IC50 Values, cytotoxicity against A549
OBSERVED PROPERTY: IC50 (µM)
Answer format: numeric, µM implied, no suffix.

Request: For A549 human lung adenocarcinoma cell line, provide IC50 of COc1cccc2c1C(=O)c1c(O)c3c(c(O)c1C2=O)C[C@@](O)(C(=O)CO)C[C@@H]3O[C@H]1C[C@H](N)[C@H](O)[C@H](C)O1 [adriamycin, reference compound] please.
Response: 4.26

All figures here come from paper PMC11643578.
